Recorded values, source paper PMC9721424.

Catalogue of SI readings, one per entry.
Molecular target: UniProt P79208
Sequence (P79208 17-603): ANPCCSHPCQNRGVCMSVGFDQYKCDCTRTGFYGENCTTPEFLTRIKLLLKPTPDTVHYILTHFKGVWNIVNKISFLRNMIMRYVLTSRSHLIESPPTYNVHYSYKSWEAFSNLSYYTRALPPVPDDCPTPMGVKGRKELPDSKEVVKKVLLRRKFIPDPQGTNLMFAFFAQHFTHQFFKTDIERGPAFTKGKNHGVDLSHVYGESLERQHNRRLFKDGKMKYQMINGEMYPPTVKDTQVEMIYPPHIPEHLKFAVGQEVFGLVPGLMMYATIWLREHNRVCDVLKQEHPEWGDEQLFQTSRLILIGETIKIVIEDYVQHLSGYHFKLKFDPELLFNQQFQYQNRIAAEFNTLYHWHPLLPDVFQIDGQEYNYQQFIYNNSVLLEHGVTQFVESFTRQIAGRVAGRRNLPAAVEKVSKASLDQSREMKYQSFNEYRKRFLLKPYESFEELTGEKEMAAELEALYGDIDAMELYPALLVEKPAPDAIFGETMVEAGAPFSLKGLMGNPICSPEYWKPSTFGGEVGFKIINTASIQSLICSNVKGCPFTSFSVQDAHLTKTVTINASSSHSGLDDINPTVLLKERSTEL
Assay: COX-2 inhibition, enzyme immune assay (EIA) kit
Format: biochemical, ovine
Conditions: lab report, COX1/COX2
No unit in the answer, only the number.

Please review the following examples before continuing.
INSERT INTO measurements (chemsmiles, measured) VALUES
  ('CS(=O)(=O)n1cc(/C=N/NC(=S)Nc2ccccc2)c2ccccc21', 3.116),
  ('CS(=O)(=O)n1cc(/C=N/N=C2/NCC(=O)S2)c2ccccc21', 0.592),
  ('CS(=O)(=O)n1cc(/C=N/N=C2\SC(=O)CN2c2ccccc2)c2ccccc21', 3.628);

Pending compound:
Please report the measured SI for CS(=O)(=O)n1cc(/C=N/NC(N)=O)c2ccccc21 tested on UniProt P79208. 0.779
